# assay.remarks: PK results in human, Compound (A) given orally once-a-day
# Assay type: in vivo
# measurement.parameters: serum, po, 90 ug, oral 90 μg, after a single dose
quantity.kind: Cmax (ng/mL)

>>> value_observed("C[C@H]1CCCN(CCCOc2ccc(-c3cc[n+]([O-])cc3)cc2)C1 [Compound (A)]")
0.171

---

# assay.remarks: PK results in human, Compound (A) given orally once-a-day
# Assay type: in vivo
# measurement.parameters: serum, oral; human, determined at Day 10 after multiple administrations; read-out: mean t1/2 (converted)
quantity.kind: half-life

>>> value_observed("C[C@H]1CCCN(CCCOc2ccc(-c3cc[n+]([O-])cc3)cc2)C1 [Compound (A)]")
"~33 h"

---

# assay.remarks: PK results in human, Compound (A) given orally once-a-day
# Format: in vivo
# measurement.parameters: human, serum, po, 60 ug, human, oral 60 μg, after a single dose
quantity.kind: Cmax

>>> value_observed("C[C@H]1CCCN(CCCOc2ccc(-c3cc[n+]([O-])cc3)cc2)C1")
"0.121 ng/mL"

---

# assay.remarks: Comparative pharmacokinetic data in mice (plasma and brain)
# measurement.parameters: male swiss mice, normalized at 1 mg of base/kg, 24 hours sampling
Property: AUC brain; scope: individual molecules
quantity.kind: AUC brain

>>> value_observed("C[C@H]1CCCN(CCCOc2ccc(-c3cc[n+]([O-])cc3)cc2)C1.O=C(O)c1cc2ccccc2c(Cc2c(O)c(C(=O)O)cc3ccccc23)c1O")
"952 ng·h/g"
>>> value_observed("C[C@H]1CCCN(CCCOc2ccc(-c3cc[n+]([O-])cc3)cc2)C1.O=S(=O)(O)O")
"639 ng·h/g"
>>> value_observed("C[C@H]1CCCN(CCCOc2ccc(-c3cc[n+]([O-])cc3)cc2)C1.O=C(O)/C=C/C(=O)O")
"882 ng·h/g"
>>> value_observed("C[C@H]1CCCN(CCCOc2ccc(-c3cc[n+]([O-])cc3)cc2)C1.O=P(O)(O)O")
"630 ng·h/g"
>>> value_observed("C[C@H]1CCCN(CCCOc2ccc(-c3cc[n+]([O-])cc3)cc2)C1.O=C(O)C(=O)O")
"923 ng·h/g"
>>> value_observed("C[C@H]1CCCN(CCCOc2ccc(-c3cc[n+]([O-])cc3)cc2)C1")
"860 ng·h/g"
>>> value_observed("C[C@H]1CCCN(CCCOc2ccc(-c3cc[n+]([O-])cc3)cc2)C1.O.O.O.O=C(O)C(O)C(O)C(=O)O")
"814 ng·h/g"
>>> value_observed("C[C@H]1CCCN(CCCOc2ccc(-c3cc[n+]([O-])cc3)cc2)C1.Cl.Cl.O.O.O.O")
"1040 ng·h/g"

---

# measurement.parameters: mouse, in vivo
Property: ratio of plasma AUC over the AUC of the dihydrochloride tetrahydrate; scope: individual compounds
quantity.kind: ratio of plasma AUC over the AUC of the dihydrochloride tetrahydrate

>>> value_observed("Br.Br.C[C@H]1CCCN(CCCOc2ccc(-c3cc[n+]([O-])cc3)cc2)C1 [Example 16]")
0.6
>>> value_observed("C[C@H]1CCCN(CCCOc2ccc(-c3cc[n+]([O-])cc3)cc2)C1.O.O=C(O)c1ccc2ccccc2c1O [Example 19]")
0.6
>>> value_observed("CCO.C[C@H]1CCCN(CCCOc2ccc(-c3cc[n+]([O-])cc3)cc2)C1.C[C@H]1CCCN(CCCOc2ccc(-c3cc[n+]([O-])cc3)cc2)C1.O.O.O=S(=O)(O)c1cccc2c(S(=O)(=O)O)cccc12.O=S(=O)(O)c1cccc2c(S(=O)(=O)O)cccc12 [Example 11]")
0.7
>>> value_observed("Br.C[C@H]1CCCN(CCCOc2ccc(-c3cc[n+]([O-])cc3)cc2)C1 [Example 13]")
0.6
>>> value_observed("C[C@H]1CCCN(CCCOc2ccc(-c3cc[n+]([O-])cc3)cc2)C1.O=C(O)c1cc2ccccc2cc1O [Example 20]")
0.6
>>> value_observed("C[C@H]1CCCN(CCCOc2ccc(-c3cc[n+]([O-])cc3)cc2)C1.C[C@H]1CCCN(CCCOc2ccc(-c3cc[n+]([O-])cc3)cc2)C1.Cc1ccc(S(=O)(=O)O)cc1.Cc1ccc(S(=O)(=O)O)cc1.O.O.O.O.O [Example 10]")
1.2

Sourced from patent US11179329B2
